Tested on: Rhipicephalus microplus
Test: Rhipicephalus (Boophilus) microplus in-vitro contact test, larval cattle tick, strain Parkhurst (BOOPMI Cont)
Assay type: in vivo
Conditions: application rate 5 μg/cm^2 (=500 g/ha), tick larvae, after 48 hours, read-out: activity (efficacy: 100% means all larvae are dead or moribund)
Below, each entry is listed with its recorded pest or weed control at 5 µg/cm2.
Response body: numeric value in %, unit text excluded.

# example entries with known answers
- C[C@H](NC(=O)c1cc(Cl)nc(C(F)(F)F)c1)c1ncnn1-c1ccc(C#N)cn1 [II-5]: 100
- C[C@H](NC(=O)c1cc(Cl)cc(C(F)(F)F)c1)c1ncnn1-c1cnc(C#N)cn1 [II-1]: 90
- COCCN(C)C(=O)c1ccc(-n2nc(C)nc2[C@H](C)NC(=O)c2cc(C(F)(F)F)cc(C(F)(F)F)c2)nc1 [II-98]: 100
- Cc1nc([C@H](C)NC(=O)c2cc(Br)cc(OC(F)(F)F)c2)n(-c2cc(C#N)ccn2)n1 [II-106]: 100

Could you tell me which pest or weed control at 5 µg/cm2 is on file for COc1nc([C@H](C)NC(=O)c2cc(F)cc(C#N)c2)n(-c2ccc(C#N)cn2)n1 [I-62] ?
90

Param item: C[C@H](NC(=O)c1cc(C(F)(F)F)cc(C(F)(F)F)c1)c1ncnn1-c1ccc(C(=O)N(C)CC(F)(F)F)cn1 [II-74]
100

Param item: C[C@H](NC(=O)c1cc(C(F)(F)F)cc(C(F)(F)F)c1)c1ncnn1-c1ccc(C(N)=O)cn1 [II-81]
100

Param item: C[C@H](NC(=O)c1cc(Cl)cc(C(F)(F)F)c1)c1ncnn1-c1cc(-n2ccnc2)ccn1 [II-102]
90

* * *

Below, each entry is listed with its recorded pest or weed control at 5 µg/cm2, 500 g/ha.
Test system: Rhipicephalus sanguineus
Assay: Rhipicephalus sanguineus in-vitro contact test, adult brown dog ticks (RHIPSA Cont)
Assay type: in vivo
Details: 48 h, application rate 5 μg/cm^2 (=500 g/ha), after 48 hours, read-out: activity (efficacy: 100% means all ticks are dead or moribund)

• Cc1nc([C@H](C)NC(=O)c2cccc(Br)n2)n(-c2ccc(C#N)cn2)n1 = 80%

Could you tell me which pest or weed control at 5 µg/cm2, 500 g/ha is on file for "CC(C)c1nc([C@H](C)NC(=O)c2cc(Br)cc(C(F)(F)F)c2)n(-c2ccc(C#N)cn2)n1" ?
100%

Param item: "Cc1nc([C@H](C)NC(=O)c2cc(C(F)(F)F)cc(C(F)(F)F)c2)n(-c2ccc(C(=O)N(C)C)cn2)n1"
100%

Param item: "Cc1nc([C@H](C)NC(=O)c2cccc(Cl)n2)n(-c2ccc(C#N)cn2)n1"
100%

Param item: "COc1nc([C@H](C)NC(=O)c2cc(OC(F)F)cc(OC(F)F)c2)n(-c2ccc(C#N)cn2)n1"
80%

Param item: "CCN(C(=O)c1ccc(-n2ncnc2[C@H](C)NC(=O)c2cc(Cl)cc(C(F)(F)F)c2)nc1)C1CC1"
100%

Param item: "CC(C)c1nc([C@H](C)NC(=O)c2cc(Br)cc(OC(F)(F)F)c2)n(-c2ccc(C#N)cn2)n1"
100%

Param item: "C[C@H](NC(=O)c1cc(C(F)(F)F)cc(C(F)(F)F)c1)c1ncnn1-c1ncc(I)s1"
100%

* * *

System: Rhipicephalus microplus
Assay: Rhipicephalus (Boophilus) microplus in-vitro contact test, larval cattle tick, strain Parkhurst (BOOPMI Cont)
Type: in vivo
Conditions: application rate 5 μg/cm^2 (=500 g/ha), tick larvae, after 48 hours, read-out: activity (efficacy: 100% means all larvae are dead or moribund)
Experimental: Rhipicephalus (Boophilus) Microplus—In-Vitro Contact Tests Larval Cattle Tick (Strain Parkhurst, Resistant Against Synthetic Pyrethroids) (BOOPMI Cont) 9 mg compound is solved in 1 mL acetone and diluted with acetone to the desired concentration. 250 μL of the test solution is filled in 25 mL glass test tubes and homogeneously distributed on the inner walls by rotation and tilting on a shaking device (2 h at 30 rpm). […]
property: pest or weed control at 5 µg/cm2
Record the result as a number with its unit.

# example entries with known answers
* C[C@H](NC(=O)c1cc(C(F)(F)F)cc(C(F)(F)F)c1)c1ncnn1-c1ccc(C(=O)NC2CC2)cn1 [II-37] | 100%
* C[C@H](NC(=O)c1cc(OC(F)F)cc(OC(F)F)c1)c1nc(C2CC2)nn1-c1ccc(C#N)cn1 [I-47] | 100%
* C[C@H](NC(=O)c1cc(Cl)cc(OC(F)(F)F)c1)c1ncnn1-c1ncc(OC(F)F)cn1 [II-30] | 100%
* C[C@H](NC(=O)c1cc(Cl)cc(OC(F)(F)F)c1)c1ncnn1-c1cc(NC(=O)C2CC2)ccn1 [II-25] | 100%
* Cc1nc([C@H](C)NC(=O)c2cc(OC(F)F)cc(C(F)F)c2)n(-c2ccc(C#N)cn2)n1 [II-113] | 100%
* Cc1nc([C@H](C)NC(=O)c2cc(Cl)cc(OC(F)(F)F)c2)n(-c2cc(C#N)ccn2)n1 [II-34] | 100%
* C[C@H](NC(=O)c1cccc(Cl)n1)c1ncnn1-c1ccc(C#N)cn1 [II-9] | 80%
* C[C@H](NC(=O)c1cc(Cl)cc(OC(F)(F)F)c1)c1ncnn1-c1ncc(I)s1 [II-21] | 100%

Could you tell me which pest or weed control at 5 µg/cm2 is on file for Cc1nc([C@H](C)NC(=O)c2cc(C(F)(F)F)cc(C(F)(F)F)c2)n(-c2ccc(C(=O)N(C)CC(C)C)cn2)n1 [II-94] ?
100%

Param item: CC(C)c1nc([C@H](C)NC(=O)c2cc(Cl)cc(Br)c2)n(-c2ccc(C#N)cn2)n1 [I-19]
100%

Param item: C[C@H](NC(=O)c1cc(Br)cc(I)c1)c1ncnn1-c1ccc(C#N)cn1 [II-112]
100%

Param item: Cc1nc([C@H](C)NC(=O)c2cc(C(F)(F)F)cc(C(F)(F)F)c2)n(-c2ccc(C(=O)N(C)C)cn2)n1 [II-100]
100%

Param item: C[C@H](NC(=O)c1cc(C(F)(F)F)cc(C(F)(F)F)c1)c1ncnn1-c1ccc(C(=O)N(C)C2CC2)cn1 [II-38]
100%

Param item: C[C@H](NC(=O)c1cc(Cl)cc(C(F)(F)F)c1)c1ncnn1-c1cc([N+](=O)[O-])ccn1 [II-24]
100%

Param item: Cc1nc([C@H](C)NC(=O)c2cncc(Br)c2)n(-c2ccc(C#N)cn2)n1 [II-49]
100%

Param item: CC(C)N(C(=O)c1ccc(-n2ncnc2[C@H](C)NC(=O)c2cc(Cl)cc(C(F)(F)F)c2)nc1)C1CC1 [II-29]
100%

Param item: C[C@H](NC(=O)c1ccc(Cl)c(C(F)(F)F)c1)c1ncnn1-c1ccc(C#N)cn1 [II-10]
100%

Param item: C[C@H](NC(=O)c1cc(C(F)(F)F)cc(C(F)(F)F)c1)c1ncnn1-c1cc(C(=O)NCC#N)ccn1 [II-89]
80%

* * *

System: Rhipicephalus microplus
Test: Rhipicephalus (Boophilus) microplus in-vitro contact test, larval cattle tick, strain Parkhurst (BOOPMI Cont)
Assay type: in vivo
Settings: application rate 5 μg/cm^2 (=500 g/ha), tick larvae, after 48 hours, read-out: activity (efficacy: 100% means all larvae are dead or moribund)
Below, each entry is listed with its recorded pest or weed control at 5 µg/cm2.
Record the result as a number with its unit.

# example entries with known answers
* C[C@H](NC(=O)c1cc(C(F)(F)F)cc(C(F)(F)F)c1)c1ncnn1-c1ccc(S(C)(=O)=O)cn1 | 100%
* C[C@H](NC(=O)c1cc(Cl)cc(C(F)(F)C(F)(F)F)c1)c1nc(C2CC2)nn1-c1ccc(C#N)cn1 | 100%
* C[C@H](NC(=O)c1cc(Cl)cc(C(F)(F)F)c1)c1ncnn1-c1cc(N)ccn1 | 90%
* COc1nc([C@H](C)NC(=O)c2cc(Cl)cc(Cl)c2)n(-c2ccc(C#N)cn2)n1 | 100%

Item: "Cc1nc([C@H](C)NC(=O)c2cc(Br)cc(Br)c2)n(-c2ccc(C#N)cn2)n1" Test system: Rhipicephalus microplus Read-out: pest or weed control at 5 µg/cm2 Value: ?
100%

Param item: "CCN(CC)C(=O)c1ccnc(-n2ncnc2[C@H](C)NC(=O)c2cc(C(F)(F)F)cc(C(F)(F)F)c2)c1"
100%

Param item: "CC(C)CN(C)C(=O)c1ccc(-n2ncnc2[C@H](C)NC(=O)c2cc(Cl)cc(C(F)(F)F)c2)nc1"
100%

Param item: "CCc1nc([C@H](C)NC(=O)c2cc(Cl)cc(Cl)c2)n(-c2ccc(C#N)cn2)n1"
100%

Param item: "Cc1nc([C@H](C)NC(=O)c2cc(OC(F)F)cc(OC(F)F)c2)n(-c2ccc(C#N)cn2)n1"
100%

Param item: "C[C@H](NC(=O)c1cc(C(F)(F)F)cc(C(F)(F)F)c1)c1ncnn1-c1cc(C(=O)N(C)CC(F)(F)F)ccn1"
100%

Param item: "CCN(C)C(=O)c1ccc(-n2ncnc2[C@H](C)NC(=O)c2cc(Cl)cc(C(F)(F)F)c2)nc1"
100%

Param item: "Cc1nc([C@H](C)NC(=O)c2ccc(Cl)cn2)n(-c2ccc(C#N)cn2)n1"
80%

Param item: "CCc1nc([C@H](C)NC(=O)c2cc(Cl)cc(C(F)(F)F)c2)n(-c2ccc(C#N)cn2)n1"
100%

Param item: "COc1nc([C@H](C)NC(=O)c2cc(OC(F)F)cc(C(F)F)c2)n(-c2ccc(C#N)cn2)n1"
100%

Param item: "C[C@H](NC(=O)c1cc(C(F)(F)F)cc(C(F)(F)F)c1)c1ncnn1-c1cc(C(=O)NCC(F)(F)F)ccn1"
80%

Param item: "Cc1nc([C@H](C)NC(=O)c2cc(Cl)cc(Br)c2)n(-c2ccc(C#N)cn2)n1"
100%

These data points were gathered from patent US20220274947A1.
